Entries and their MIC
system: Escherichia coli; assay: Antimicrobial activity against Escherichia coli ATCC 25922 assessed as reduction in bacterial growth by broth dilution method; type: functional
Peptide text beside a SMILES is read from it.

[
  {
    "Compound": "CC(C)[C@H](NC(=O)[C@H](CCCCN)NC(=O)[C@@H](NC(=O)[C@H](CCCCN)NC(=O)[C@@H]1CCCN1C(=O)[C@H](Cc1c[nH]c2ccccc12)NC(=O)[C@H](Cc1c[nH]c2ccccc12)NC(=O)[C@H](Cc1c[nH]c2ccccc12)NC(=O)[C@@H]1CCCN1C(=O)[C@H](CCCCN)NC(=O)[C@@H](NC(=O)[C@H](CCCCN)NC(=O)[C@@H](NC(=O)[C@@H](N)CCCCN)C(C)C)C(C)C)C(C)C)C(=O)N[C@@H](CCCCN)C(N)=O (H-KVKVKPWWWPKVKVK-NH2)",
    "Target Under Test": "Escherichia coli",
    "MIC": "32 µM"
  },
  {
    "Compound": "NCCCC[C@H](NC(=O)[C@H](Cc1c[nH]c2ccccc12)NC(=O)[C@H](CCCCN)NC(=O)[C@H](Cc1c[nH]c2ccccc12)NC(=O)[C@H](Cc1ccccc1)NC(=O)[C@@H]1CCCN1C(=O)[C@H](Cc1c[nH]c2ccccc12)NC(=O)[C@H](Cc1c[nH]c2ccccc12)NC(=O)[C@H](Cc1c[nH]c2ccccc12)NC(=O)[C@@H]1CCCN1C(=O)[C@H](Cc1ccccc1)NC(=O)[C@H](Cc1c[nH]c2ccccc12)NC(=O)[C@H](CCCCN)NC(=O)[C@H](Cc1c[nH]c2ccccc12)NC(=O)[C@@H](N)CCCCN)C(N)=O (H-KWKWFPWWWPFWKWK-NH2)",
    "Target Under Test": "Escherichia coli",
    "MIC": "32 µM"
  }
]

###

tested on: BEAS-2B; assay: Cytotoxicity against human BEAS-2B cells at 2 to 256 uM measured after 24 hrs by CCK-8 method; type: toxicity, cell-based; conditions: dose 2-256 µM
Peptide text beside a SMILES is read from it.
Measurement Kind: Activity

[
  {
    "Compound": "CC(C)C[C@H](NC(=O)[C@H](CCCCN)NC(=O)[C@H](CC(C)C)NC(=O)[C@H](CCCCN)NC(=O)[C@@H]1CCCN1C(=O)[C@H](Cc1c[nH]c2ccccc12)NC(=O)[C@H](Cc1c[nH]c2ccccc12)NC(=O)[C@H](Cc1c[nH]c2ccccc12)NC(=O)[C@@H]1CCCN1C(=O)[C@H](CCCCN)NC(=O)[C@H](CC(C)C)NC(=O)[C@H](CCCCN)NC(=O)[C@H](CC(C)C)NC(=O)[C@@H](N)CCCCN)C(=O)N[C@@H](CCCCN)C(N)=O (H-KLKLKPWWWPKLKLK-NH2)",
    "Measurement Kind": "Activity",
    "Meas Value": "Toxic"
  }
]

###

Entries and their MIC
tested on: Klebsiella pneumoniae; assay: Antimicrobial activity against multi-drug resistant Klebsiella pneumoniae assessed as reduction in bacterial growth by broth dilution method; type: functional
Peptide text beside a SMILES is read from it.
Measurement Kind: MIC (µM)

[
  {
    "Compound": "CC[C@H](C)[C@H](NC(=O)[C@H](CCCCN)NC(=O)[C@@H](NC(=O)[C@H](CCCCN)NC(=O)[C@@H]1CCCN1C(=O)[C@H](Cc1c[nH]c2ccccc12)NC(=O)[C@H](Cc1c[nH]c2ccccc12)NC(=O)[C@H](Cc1c[nH]c2ccccc12)NC(=O)[C@@H]1CCCN1C(=O)[C@H](CCCCN)NC(=O)[C@@H](NC(=O)[C@H](CCCCN)NC(=O)[C@@H](NC(=O)[C@@H](N)CCCCN)[C@@H](C)CC)[C@@H](C)CC)[C@@H](C)CC)C(=O)N[C@@H](CCCCN)C(N)=O (H-KIKIKPWWWPKIKIK-NH2)",
    "Measurement Kind": "MIC",
    "Meas Value": 4
  },
  {
    "Compound": "CC(C)[C@H](NC(=O)[C@H](CCCCN)NC(=O)[C@@H](NC(=O)[C@H](CCCCN)NC(=O)[C@H](Cc1ccccc1)NC(=O)[C@@H]1CCCN1C(=O)[C@H](Cc1c[nH]c2ccccc12)NC(=O)[C@H](Cc1c[nH]c2ccccc12)NC(=O)[C@H](Cc1c[nH]c2ccccc12)NC(=O)[C@@H]1CCCN1C(=O)[C@H](Cc1ccccc1)NC(=O)[C@H](CCCCN)NC(=O)[C@@H](NC(=O)[C@H](CCCCN)NC(=O)[C@@H](NC(=O)[C@@H](N)CCCCN)C(C)C)C(C)C)C(C)C)C(=O)N[C@@H](CCCCN)C(N)=O (H-KVKVKFPWWWPFKVKVK-NH2)",
    "Measurement Kind": "MIC",
    "Meas Value": 16
  }
]

###

system: HEK-293T; assay: Cytotoxicity against HEK293T cells at 2 to 256 uM measured after 24 hrs by CCK-8 method; type: toxicity, cell-based; conditions: human, dose 2-256 µM
Peptide text beside a SMILES is read from it.

[
  {
    "Compound": "CC(C)[C@H](NC(=O)[C@H](CCCCN)NC(=O)[C@@H](NC(=O)[C@H](CCCCN)NC(=O)[C@H](Cc1ccccc1)NC(=O)[C@@H]1CCCN1C(=O)[C@H](Cc1c[nH]c2ccccc12)NC(=O)[C@H](Cc1c[nH]c2ccccc12)NC(=O)[C@H](Cc1c[nH]c2ccccc12)NC(=O)[C@@H]1CCCN1C(=O)[C@H](Cc1ccccc1)NC(=O)[C@H](CCCCN)NC(=O)[C@@H](NC(=O)[C@H](CCCCN)NC(=O)[C@@H](NC(=O)[C@@H](N)CCCCN)C(C)C)C(C)C)C(C)C)C(=O)N[C@@H](CCCCN)C(N)=O (H-KVKVKFPWWWPFKVKVK-NH2)",
    "Activity": "Toxic"
  },
  {
    "Compound": "CC(C)C[C@H](NC(=O)[C@H](CCCCN)NC(=O)[C@H](CC(C)C)NC(=O)[C@H](CCCCN)NC(=O)[C@@H]1CCCN1C(=O)[C@H](Cc1c[nH]c2ccccc12)NC(=O)[C@H](Cc1c[nH]c2ccccc12)NC(=O)[C@H](Cc1c[nH]c2ccccc12)NC(=O)[C@@H]1CCCN1C(=O)[C@H](CCCCN)NC(=O)[C@H](CC(C)C)NC(=O)[C@H](CCCCN)NC(=O)[C@H](CC(C)C)NC(=O)[C@@H](N)CCCCN)C(=O)N[C@@H](CCCCN)C(N)=O (H-KLKLKPWWWPKLKLK-NH2)",
    "Activity": "Toxic"
  },
  {
    "Compound": "NCCCC[C@H](NC(=O)[C@H](Cc1ccccc1)NC(=O)[C@H](CCCCN)NC(=O)[C@H](Cc1ccccc1)NC(=O)[C@H](CCCCN)NC(=O)[C@@H]1CCCN1C(=O)[C@H](Cc1c[nH]c2ccccc12)NC(=O)[C@H](Cc1c[nH]c2ccccc12)NC(=O)[C@H](Cc1c[nH]c2ccccc12)NC(=O)[C@@H]1CCCN1C(=O)[C@H](CCCCN)NC(=O)[C@H](Cc1ccccc1)NC(=O)[C@H](CCCCN)NC(=O)[C@H](Cc1ccccc1)NC(=O)[C@@H](N)CCCCN)C(N)=O (H-KFKFKPWWWPKFKFK-NH2)",
    "Activity": "Toxic"
  }
]

###

test system: Escherichia coli; assay: Antimicrobial activity against Escherichia coli ATCC 25922 assessed as reduction in bacterial growth by broth dilution method; format: functional
Peptide text beside a SMILES is read from it.
Entries and their MIC

[
  {
    "Molecule": "C[C@H]1COc2c(N3CCN(C)CC3)c(F)cc3c(=O)c(C(=O)O)cn1c23 [LEVOFLOXACIN ANHYDROUS]",
    "MIC / µM": 2
  },
  {
    "Molecule": "CC[C@H](C)[C@H](N)C(=O)N[C@@H](CCCCN)C(=O)N[C@H](C(=O)N[C@@H](CCCCN)C(=O)N[C@@H](Cc1ccccc1)C(=O)N1CCC[C@H]1C(=O)N[C@@H](Cc1c[nH]c2ccccc12)C(=O)N[C@@H](Cc1c[nH]c2ccccc12)C(=O)N[C@@H](Cc1c[nH]c2ccccc12)C(=O)N1CCC[C@H]1C(=O)N[C@@H](Cc1ccccc1)C(=O)N[C@@H](CCCCN)C(=O)N[C@H](C(=O)N[C@@H](CCCCN)C(=O)N[C@H](C(N)=O)[C@@H](C)CC)[C@@H](C)CC)[C@@H](C)CC (H-IKIKFPWWWPFKIKI-NH2)",
    "MIC / µM": 16
  },
  {
    "Molecule": "CC(C)[C@H](NC(=O)[C@H](CCCCN)NC(=O)[C@@H](NC(=O)[C@H](CCCCN)NC(=O)[C@H](Cc1ccccc1)NC(=O)[C@@H]1CCCN1C(=O)[C@H](Cc1c[nH]c2ccccc12)NC(=O)[C@H](Cc1c[nH]c2ccccc12)NC(=O)[C@H](Cc1c[nH]c2ccccc12)NC(=O)[C@@H]1CCCN1C(=O)[C@H](Cc1ccccc1)NC(=O)[C@H](CCCCN)NC(=O)[C@@H](NC(=O)[C@H](CCCCN)NC(=O)[C@@H](NC(=O)[C@@H](N)CCCCN)C(C)C)C(C)C)C(C)C)C(=O)N[C@@H](CCCCN)C(N)=O (H-KVKVKFPWWWPFKVKVK-NH2)",
    "MIC / µM": 4
  },
  {
    "Molecule": "NCCCC[C@H](NC(=O)[C@H](Cc1c[nH]c2ccccc12)NC(=O)[C@H](CCCCN)NC(=O)[C@H](Cc1c[nH]c2ccccc12)NC(=O)[C@@H]1CCCN1C(=O)[C@H](Cc1c[nH]c2ccccc12)NC(=O)[C@H](Cc1c[nH]c2ccccc12)NC(=O)[C@H](Cc1c[nH]c2ccccc12)NC(=O)[C@@H]1CCCN1C(=O)[C@H](Cc1c[nH]c2ccccc12)NC(=O)[C@H](CCCCN)NC(=O)[C@H](Cc1c[nH]c2ccccc12)NC(=O)[C@@H](N)CCCCN)C(N)=O (H-KWKWPWWWPWKWK-NH2)",
    "MIC / µM": 8
  },
  {
    "Molecule": "CN[C@H](CC(C)C)C(=O)N[C@H]1C(=O)N[C@@H](CC(N)=O)C(=O)N[C@H]2C(=O)N[C@H]3C(=O)N[C@H](C(=O)N[C@H](C(=O)O)c4cc(O)cc(O)c4-c4cc3ccc4O)[C@H](O)c3ccc(c(Cl)c3)Oc3cc2cc(c3O[C@@H]2O[C@H](CO)[C@@H](O)[C@H](O)[C@H]2O[C@H]2C[C@](C)(N)[C@H](O)[C@H](C)O2)Oc2ccc(cc2Cl)[C@H]1O",
    "MIC / µM": 256
  },
  {
    "Molecule": "CC1(C)S[C@@H]2[C@H](NC(=O)[C@H](N)c3ccc(O)cc3)C(=O)N2[C@H]1C(=O)O",
    "MIC / µM": 4
  },
  {
    "Molecule": "NCCCC[C@H](NC(=O)[C@H](Cc1c[nH]c2ccccc12)NC(=O)[C@H](CCCCN)NC(=O)[C@@H]1CCCN1C(=O)[C@H](Cc1c[nH]c2ccccc12)NC(=O)[C@H](Cc1c[nH]c2ccccc12)NC(=O)[C@H](Cc1c[nH]c2ccccc12)NC(=O)[C@@H]1CCCN1C(=O)[C@H](CCCCN)NC(=O)[C@H](Cc1c[nH]c2ccccc12)NC(=O)[C@H](CCCCN)NC(=O)[C@@H](N)Cc1c[nH]c2ccccc12)C(=O)N[C@@H](Cc1c[nH]c2ccccc12)C(N)=O (H-WKWKPWWWPKWKW-NH2)",
    "MIC / µM": 8
  },
  {
    "Molecule": "CC[C@H](C)[C@H](N)C(=O)N[C@@H](CCCCN)C(=O)N[C@H](C(=O)N[C@@H](CCCCN)C(=O)N1CCC[C@H]1C(=O)N[C@@H](Cc1c[nH]c2ccccc12)C(=O)N[C@@H](Cc1c[nH]c2ccccc12)C(=O)N[C@@H](Cc1c[nH]c2ccccc12)C(=O)N1CCC[C@H]1C(=O)N[C@@H](CCCCN)C(=O)N[C@H](C(=O)N[C@@H](CCCCN)C(=O)N[C@H](C(N)=O)[C@@H](C)CC)[C@@H](C)CC)[C@@H](C)CC (H-IKIKPWWWPKIKI-NH2)",
    "MIC / µM": 16
  },
  {
    "Molecule": "NCCCC[C@H](NC(=O)[C@H](Cc1ccccc1)NC(=O)[C@H](CCCCN)NC(=O)[C@H](Cc1ccccc1)NC(=O)[C@H](CCCCN)NC(=O)[C@@H]1CCCN1C(=O)[C@H](Cc1c[nH]c2ccccc12)NC(=O)[C@H](Cc1c[nH]c2ccccc12)NC(=O)[C@H](Cc1c[nH]c2ccccc12)NC(=O)[C@@H]1CCCN1C(=O)[C@H](CCCCN)NC(=O)[C@H](Cc1ccccc1)NC(=O)[C@H](CCCCN)NC(=O)[C@H](Cc1ccccc1)NC(=O)[C@@H](N)CCCCN)C(N)=O (H-KFKFKPWWWPKFKFK-NH2)",
    "MIC / µM": 2
  },
  {
    "Molecule": "CC(C)C[C@H](NC(=O)[C@H](CCCCN)NC(=O)[C@H](CC(C)C)NC(=O)[C@H](CCCCN)NC(=O)[C@@H]1CCCN1C(=O)[C@H](Cc1c[nH]c2ccccc12)NC(=O)[C@H](Cc1c[nH]c2ccccc12)NC(=O)[C@H](Cc1c[nH]c2ccccc12)NC(=O)[C@@H]1CCCN1C(=O)[C@H](CCCCN)NC(=O)[C@H](CC(C)C)NC(=O)[C@H](CCCCN)NC(=O)[C@H](CC(C)C)NC(=O)[C@@H](N)CCCCN)C(=O)N[C@@H](CCCCN)C(N)=O (H-KLKLKPWWWPKLKLK-NH2)",
    "MIC / µM": 4
  },
  {
    "Molecule": "NCCCC[C@H](NC(=O)[C@H](Cc1ccccc1)NC(=O)[C@H](CCCCN)NC(=O)[C@H](Cc1ccccc1)NC(=O)[C@H](CCCCN)NC(=O)[C@H](Cc1ccccc1)NC(=O)[C@@H]1CCCN1C(=O)[C@H](Cc1c[nH]c2ccccc12)NC(=O)[C@H](Cc1c[nH]c2ccccc12)NC(=O)[C@H](Cc1c[nH]c2ccccc12)NC(=O)[C@@H]1CCCN1C(=O)[C@H](Cc1ccccc1)NC(=O)[C@H](CCCCN)NC(=O)[C@H](Cc1ccccc1)NC(=O)[C@H](CCCCN)NC(=O)[C@H](Cc1ccccc1)NC(=O)[C@@H](N)CCCCN)C(N)=O (H-KFKFKFPWWWPFKFKFK-NH2)",
    "MIC / µM": 8
  }
]
